# experimental_system: human P-glycoprotein (P-gp, MDR1) (Homo sapiens (Human))
# Sequence (P08183 whole entry): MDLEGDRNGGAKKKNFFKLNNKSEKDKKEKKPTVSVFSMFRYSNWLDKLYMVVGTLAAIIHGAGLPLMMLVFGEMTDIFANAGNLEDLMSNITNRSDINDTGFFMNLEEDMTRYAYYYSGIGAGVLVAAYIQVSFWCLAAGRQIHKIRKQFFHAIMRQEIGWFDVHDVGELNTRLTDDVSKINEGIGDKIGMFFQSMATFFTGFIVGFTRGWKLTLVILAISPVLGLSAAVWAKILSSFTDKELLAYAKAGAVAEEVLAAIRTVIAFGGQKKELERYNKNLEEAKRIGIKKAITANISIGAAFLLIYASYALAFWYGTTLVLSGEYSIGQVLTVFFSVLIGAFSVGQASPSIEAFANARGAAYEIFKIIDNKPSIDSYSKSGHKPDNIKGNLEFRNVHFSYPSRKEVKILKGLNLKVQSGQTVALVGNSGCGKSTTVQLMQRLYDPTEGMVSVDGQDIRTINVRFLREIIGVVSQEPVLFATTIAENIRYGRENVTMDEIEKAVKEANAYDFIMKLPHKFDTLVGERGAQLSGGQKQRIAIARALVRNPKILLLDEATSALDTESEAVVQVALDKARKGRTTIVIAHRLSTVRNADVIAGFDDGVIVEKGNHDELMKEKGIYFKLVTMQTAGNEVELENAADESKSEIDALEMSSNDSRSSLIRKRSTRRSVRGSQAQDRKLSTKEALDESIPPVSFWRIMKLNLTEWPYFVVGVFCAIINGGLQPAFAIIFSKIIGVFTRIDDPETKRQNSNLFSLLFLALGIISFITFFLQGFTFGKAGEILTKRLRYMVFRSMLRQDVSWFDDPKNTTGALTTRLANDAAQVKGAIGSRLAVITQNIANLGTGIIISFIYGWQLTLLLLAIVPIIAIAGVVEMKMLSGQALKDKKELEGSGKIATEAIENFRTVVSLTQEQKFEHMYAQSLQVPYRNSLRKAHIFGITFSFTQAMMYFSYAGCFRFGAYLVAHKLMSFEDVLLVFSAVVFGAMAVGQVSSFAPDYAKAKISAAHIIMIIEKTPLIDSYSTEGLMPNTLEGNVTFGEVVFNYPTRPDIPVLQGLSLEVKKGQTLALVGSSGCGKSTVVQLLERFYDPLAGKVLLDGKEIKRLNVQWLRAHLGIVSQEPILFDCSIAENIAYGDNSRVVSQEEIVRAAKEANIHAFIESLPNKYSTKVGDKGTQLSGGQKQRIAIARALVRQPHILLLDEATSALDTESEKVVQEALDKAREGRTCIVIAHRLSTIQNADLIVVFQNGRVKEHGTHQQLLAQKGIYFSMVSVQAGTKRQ
# assay_procedure: MDCK-MDR1 cell monolayer drug transport assay (P-gp efflux ratio)
# Format: in vitro ADME
# reported_conditions: pH 7.4, MDCK-MDR1 cells, 1 uM concentration of compound, read-out: Pgp Efflux Ratio, 1 uM
Field: efflux ratio at 2 h, 1 µM. Provide a value for each of the molecules that follow.

Query block: Identify efflux ratio at 2 h, 1 µM associated with the molecule COCCNc1cc2c(C(=O)Nc3cc(-c4nnn(C5CN(C(=O)OC)C5)n4)ccc3C)cnn2cc1F [Example 171]
Result block: 6

Query block: Identify efflux ratio at 2 h, 1 µM associated with the molecule COC(=O)N1CC(c2cnn(-c3ccc(C)c(NC(=O)c4cnn5ccc(NCC(F)F)cc45)c3)n2)C1 [Example 139]
Result block: 18.9

Query block: Identify efflux ratio at 2 h, 1 µM associated with the molecule Cc1ccc(-c2nnn(C3CC3)n2)cc1NC(=O)c1cnn2ccc(-c3cnn(CC4(O)CCOCC4)c3)cc12 [Example 206]
Result block: 22.6

Query block: Identify efflux ratio at 2 h, 1 µM associated with the molecule COCCNc1cc2c(C(=O)Nc3cc(-c4nnn(C5CN(C(=O)OC)C5)n4)ccc3C)cnn2cc1Cl [Example 145]
Result block: 6.4

----------
Field: pIC50. Provide a value for each of the molecules that follow.
# experimental_system: wild type c-kit (Homo sapiens (Human), UniProt P10721)
# Sequence (P10721 26-976): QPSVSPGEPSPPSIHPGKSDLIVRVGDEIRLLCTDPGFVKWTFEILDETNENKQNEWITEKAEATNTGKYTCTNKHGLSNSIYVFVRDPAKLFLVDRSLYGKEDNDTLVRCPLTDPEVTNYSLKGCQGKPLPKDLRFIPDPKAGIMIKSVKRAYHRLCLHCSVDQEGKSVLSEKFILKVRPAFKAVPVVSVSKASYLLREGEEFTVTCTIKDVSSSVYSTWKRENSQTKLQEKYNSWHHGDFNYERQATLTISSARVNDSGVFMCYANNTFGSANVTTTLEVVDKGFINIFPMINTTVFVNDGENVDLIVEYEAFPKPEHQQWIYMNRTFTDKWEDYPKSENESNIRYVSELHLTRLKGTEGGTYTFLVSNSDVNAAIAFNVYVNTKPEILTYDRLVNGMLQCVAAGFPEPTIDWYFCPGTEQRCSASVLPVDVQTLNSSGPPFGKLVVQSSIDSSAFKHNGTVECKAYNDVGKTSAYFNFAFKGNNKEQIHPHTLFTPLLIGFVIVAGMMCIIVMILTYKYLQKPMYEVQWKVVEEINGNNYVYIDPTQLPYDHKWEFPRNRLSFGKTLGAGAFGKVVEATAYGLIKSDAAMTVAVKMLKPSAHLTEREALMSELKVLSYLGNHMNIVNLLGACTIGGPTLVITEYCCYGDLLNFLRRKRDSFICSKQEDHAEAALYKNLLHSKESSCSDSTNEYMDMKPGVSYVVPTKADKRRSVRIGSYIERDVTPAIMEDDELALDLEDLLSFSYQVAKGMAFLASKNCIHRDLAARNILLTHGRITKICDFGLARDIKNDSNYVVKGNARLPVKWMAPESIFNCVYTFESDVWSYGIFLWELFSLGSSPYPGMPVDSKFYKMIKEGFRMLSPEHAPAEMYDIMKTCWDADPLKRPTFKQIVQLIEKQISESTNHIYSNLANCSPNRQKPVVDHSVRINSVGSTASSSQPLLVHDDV
# assay_procedure: PathScan phospho c-kit (Tyr719) sandwich ELISA in SCF-stimulated M-07e cells (pKIT assay)
# Assay type: cell-based
# reported_conditions: ELISA assay (values not marked *)
Scale: negative log10 of molar concentration, which is what pIC50 denotes.

Query block: Under wild type c-kit (Homo sapiens (Human), UniProt P10721), report pIC50 for Cc1ccc(-c2nnn(C3CC3)n2)cc1NC(=O)c1cnn2ccc(-c3cnn([C@@H](C)[C@H](C)O)c3C)cc12 (single isomer, unassigned) [Example 270]
Result block: 9.30

Query block: Under wild type c-kit (Homo sapiens (Human), UniProt P10721), report pIC50 for Cc1nn(C[C@@H](C)O)cc1-c1ccn2ncc(C(=O)Nc3cc(-c4nnn(C5CC5)n4)c(F)cc3Cl)c2c1 [Example 281]
Result block: 9.40

Query block: Under wild type c-kit (Homo sapiens (Human), UniProt P10721), report pIC50 for Cn1nnc(-c2ccc(Cl)c(NC(=O)c3cnn4ccc(-c5cnn(CC(C)(C)O)c5)cc34)c2)n1 [Example 210]
Result block: 8.13

Query block: Under wild type c-kit (Homo sapiens (Human), UniProt P10721), report pIC50 for COC(=O)N1CC(n2nnc(-c3ccc(C)c(NC(=O)c4cnn5ccc(OCCC(C)(C)O)cc45)c3)n2)C1 [Example 65]
Result block: 7.47

Query block: Under wild type c-kit (Homo sapiens (Human), UniProt P10721), report pIC50 for CCS(=O)(=O)N1CC(n2nnc(-c3ccc(C)c(NC(=O)c4cnn5ccccc45)c3)n2)C1 [Example 173]
Result block: 7.92

Query block: Under wild type c-kit (Homo sapiens (Human), UniProt P10721), report pIC50 for O=C(Nc1cc(-c2nnn(C3CC(F)(F)C3)n2)ccc1Cl)c1cnn2ccc(N3CCOCC3)cc12 [Example 169]
Result block: 8.33

Query block: Under wild type c-kit (Homo sapiens (Human), UniProt P10721), report pIC50 for Cc1ccc(-n2nnc(C3CC3)n2)cc1NC(=O)c1cnn2ccc(-c3cnn(CCO)c3)cc12 [Example 52]
Result block: 9.15

Query block: Under wild type c-kit (Homo sapiens (Human), UniProt P10721), report pIC50 for Cc1ccc(-c2nnn(C3CC3)n2)cc1NC(=O)c1cnn2ccc(-c3cnn(CC4(O)CCOCC4)c3)cc12 [Example 206]
Result block: 8.92

Query block: Under wild type c-kit (Homo sapiens (Human), UniProt P10721), report pIC50 for [2H]C([2H])([2H])c1ccc(-c2nnn(C3CN(C(=O)OC)C3)n2)cc1NC(=O)c1cnn2ccc(NCCOC)cc12 [Example 118]
Result block: 7.64

Query block: Under wild type c-kit (Homo sapiens (Human), UniProt P10721), report pIC50 for COCCOC[C@@H](O)Cn1cc(-c2ccn3ncc(C(=O)Nc4cc(-c5nnn(C6CC6)n5)c(F)cc4Cl)c3c2)c(C)n1 [Example 285]
Result block: 9.00

Query block: Under wild type c-kit (Homo sapiens (Human), UniProt P10721), report pIC50 for O=C(Nc1cc(-n2nnc([C@H]3C[C@@H]3F)n2)ccc1Cl)c1cnn2ccc(-c3cnn(CC4(O)CCOCC4)c3)cc12 (single isomer, unassigned) [Example 271]
Result block: 9.52

Query block: Under wild type c-kit (Homo sapiens (Human), UniProt P10721), report pIC50 for Cc1cc(C)c(-c2nnn(CC34COC(C3)C4)n2)cc1NC(=O)c1cnn2ccccc12 [Example 20]
Result block: 7.29

Query block: Under wild type c-kit (Homo sapiens (Human), UniProt P10721), report pIC50 for CCOC(=O)N1CC(n2nnc(-c3ccc(C)c(NC(=O)c4cnn5ccc(N6CCN(C)CC6)cc45)c3)n2)C1 [Example 76]
Result block: 7.25

Query block: Under wild type c-kit (Homo sapiens (Human), UniProt P10721), report pIC50 for Cc1ccc(-c2nnn(C3CN(S(=O)(=O)CCC(F)F)C3)n2)cc1NC(=O)c1cnn2ccccc12 [Example 184]
Result block: 8.21

Query block: Under wild type c-kit (Homo sapiens (Human), UniProt P10721), report pIC50 for COC[C@](C)(O)Cn1cc(-c2ccn3ncc(C(=O)Nc4cc(-c5nnn(C6CC6)n5)ccc4C)c3c2)cn1 (single isomer, unassigned) [Example 267]
Result block: 8.85

Query block: Under wild type c-kit (Homo sapiens (Human), UniProt P10721), report pIC50 for CNc1ccn2ncc(C(=O)Nc3cc(-n4ncc(C5CN(C(=O)OC)C5)n4)ccc3C)c2c1 [Example 138]
Result block: 7.87

Query block: Under wild type c-kit (Homo sapiens (Human), UniProt P10721), report pIC50 for COC(=O)N1CC(n2nnc(-c3ccc(C)c(NC(=O)c4cnn5ccc(N6CCN(C)CC6)cc45)c3)n2)C1 [Example 66]
Result block: 7.19

Query block: Under wild type c-kit (Homo sapiens (Human), UniProt P10721), report pIC50 for COC(=O)N1CC(n2nnc(-c3ccc(C)c(NC(=O)c4cnn5ccc(NC[C@H](C)O)cc45)c3)n2)C1 [Example 94]
Result block: 6.88

Query block: Under wild type c-kit (Homo sapiens (Human), UniProt P10721), report pIC50 for COCCNc1ccc2c(C(=O)Nc3cc(-c4nnn(C5CN(C(=O)OC)C5)n4)ccc3Cl)cnn2c1 [Example 157]
Result block: 8.19

Query block: Under wild type c-kit (Homo sapiens (Human), UniProt P10721), report pIC50 for COCCNc1ccn2ncc(C(=O)Nc3cc(-c4nnn(C[C@@H]5CC5(F)F)n4)ccc3C)c2c1 (single isomer, unassigned) [Example 123]
Result block: 8.47

Query block: Under wild type c-kit (Homo sapiens (Human), UniProt P10721), report pIC50 for Cc1ccc(-c2nnn(C3CC(F)(F)C3)n2)cc1NC(=O)c1cnn2ccc(N3CCC(C)(O)CC3)cc12 [Example 61]
Result block: 8.49

Query block: Under wild type c-kit (Homo sapiens (Human), UniProt P10721), report pIC50 for Cc1nn(CC(C)(C)O)cc1-c1ccn2ncc(C(=O)Nc3cc(-c4nnn(C5CC5)n4)ccc3Cl)c2c1 [Example 250]
Result block: 9.40

Query block: Under wild type c-kit (Homo sapiens (Human), UniProt P10721), report pIC50 for Cc1cc(Cl)c(NC(=O)c2cnn3ccc(-c4cn(CC5(O)CCOCC5)nc4C)cc23)cc1-c1nnn(C2CC2)n1 [Example 235]
Result block: 8.80

Query block: Under wild type c-kit (Homo sapiens (Human), UniProt P10721), report pIC50 for O=C(Nc1cc(-c2nnn(C3CC(F)(F)C3)n2)c(F)cc1Cl)c1cnn2ccc(N3CCOCC3)cc12 [Example 63]
Result block: 7.98

Query block: Under wild type c-kit (Homo sapiens (Human), UniProt P10721), report pIC50 for Cc1ccc(-c2nnn(C3CN(S(=O)(=O)CCOCC(F)F)C3)n2)cc1NC(=O)c1cnn2ccccc12 [Example 176]
Result block: 7.32

Query block: Under wild type c-kit (Homo sapiens (Human), UniProt P10721), report pIC50 for [2H]C([2H])([2H])N1CCN(c2ccn3ncc(C(=O)Nc4cc(-c5nnn(C6CN(C(=O)OC)C6)n5)ccc4C)c3c2)CC1 [Example 72]
Result block: 7.42

Query block: Under wild type c-kit (Homo sapiens (Human), UniProt P10721), report pIC50 for Cc1ccc(-n2nnc([C@H]3CC3(F)F)n2)cc1NC(=O)c1cnn2ccc(-c3cnn(CCO)c3)cc12 (single isomer, unassigned) [Example 211]
Result block: 8.59
